# Test system: LS-174T
# assay info: cells
# Design: species or system panel of human cancer cell lines; Eurofins OncoPanel proliferation; nuclei count by high-content fluorescence imaging, 10-point dose response
# condition notes: Homo sapiens, LS174T, 72 h; cell count, 50% of maximum possible response, 3 days
observation type: IC50

Recorded result, C[C@@H]1CC(=O)NN=C1c1ccc(NN=C(C#N)C#N)cc1 [levosimendan] , IC50: > 100 µM

* * *

# Tested on: BeWo
# assay info: cells
# Parameters: species or system panel of human cancer cell lines; Eurofins OncoPanel proliferation; nuclei count by high-content fluorescence imaging, 10-point dose response
# condition notes: Homo sapiens, BeWo, 72 h; cell count, 50% of maximum possible response, 3 days
# Experimental: OncoPanel cancer cell proliferation assay was performed by Eurofins Panlabs, Inc. (Missouri, USA). Cancer cells were grown in RPMI 1640, 10% FBS, 2 mM L-alanyl-L-glutamine, 1 mM Na pyruvate, or a special medium. […] After a 3-day incubation period, cells were fixed and stained to allow fluorescence imaging of nuclei. […] Automated fluorescence microscopy was carried out using a Molecular Devices ImageXpress Micro XL high-content imager, and images were collected with a 4X objective. […]
observation type: pIC50
To interpret pIC50, take it as minus log10 of a concentration measured in moles per litre.

Entry C[C@@H]1CC(=O)NN=C1c1ccc(NN=C(C#N)C#N)cc1 , pIC50 reported as 4.43

* * *

# System: A388
# assay info: cells
# Set-up: species or system panel of human cancer cell lines; Eurofins OncoPanel proliferation; nuclei count by high-content fluorescence imaging, 10-point dose response
# condition notes: 72 h; cell count, curve inflection point, 3 days
observation type: EC50
Please answer using a numeric value trailed by its unit.

The compound identified as C[C@@H]1CC(=O)NN=C1c1ccc(NN=C(C#N)C#N)cc1 [levosimendan] registered its EC50 at 61.1 µM

* * *

# Tested on: MCF7
# assay info: cells
# Parameters: species or system panel of human cancer cell lines; Eurofins OncoPanel proliferation; nuclei count by high-content fluorescence imaging, 10-point dose response
# condition notes: Homo sapiens, MCF7, 72 h; cell count, curve inflection point, 3 days
observation type: EC50 (µM)
State just the number; it will be interpreted in µM.

What the record says about C[C@@H]1CC(=O)NN=C1c1ccc(NN=C(C#N)C#N)cc1 : EC50 is 16.1

* * *

# Test system: ARH-77
# assay info: cells
# Set-up: species or system panel of human cancer cell lines; Eurofins OncoPanel proliferation; nuclei count by high-content fluorescence imaging, 10-point dose response
# condition notes: Homo sapiens, ARH-77, 72 h; cell count, 50% of maximum possible response, 3 days
observation type: pIC50
pIC50 is defined as minus the log10 of a concentration measured in mol/L.

What the record says about C[C@@H]1CC(=O)NN=C1c1ccc(NN=C(C#N)C#N)cc1 : pIC50 is 4.69

* * *

# Tested on: VA-ES-BJ
# assay info: cells
# Parameters: species or system panel of human cancer cell lines; Eurofins OncoPanel proliferation; nuclei count by high-content fluorescence imaging, 10-point dose response
# condition notes: 72 h; cell count, curve inflection point, 3 days
observation type: EC50
Form field: result (number plus unit)

Kindly note the recorded EC50 for C[C@@H]1CC(=O)NN=C1c1ccc(NN=C(C#N)C#N)cc1 , which is 51.7 µM

* * *

# Test system: HPAF-II
# assay info: cells
# Set-up: species or system panel of human cancer cell lines; Eurofins OncoPanel proliferation; nuclei count by high-content fluorescence imaging, 10-point dose response
# condition notes: Homo sapiens, HPAF-II, 72 h; cell count, curve inflection point, 3 days
observation type: pEC50
Reminder that pEC50 is minus the log10 of a molar concentration.

Lookup result for C[C@@H]1CC(=O)NN=C1c1ccc(NN=C(C#N)C#N)cc1 ; measured pEC50: 4.18

* * *

# System: ARH-77
# assay info: cells
# Set-up: species or system panel of human cancer cell lines; Eurofins OncoPanel proliferation; nuclei count by high-content fluorescence imaging, 10-point dose response
# condition notes: Homo sapiens, ARH-77, 72 h; cell count, curve inflection point, 3 days
observation type: pEC50
Scale: pEC50 equals -log10([C]), with [C] in mol/L.

Fill in: ARH-77 pEC50 for C[C@@H]1CC(=O)NN=C1c1ccc(NN=C(C#N)C#N)cc1 = 4.71

* * *

# Tested on: CCRFCEM
# assay info: cells
# Parameters: species or system panel of human cancer cell lines; Eurofins OncoPanel proliferation; nuclei count by high-content fluorescence imaging, 10-point dose response
# condition notes: Homo sapiens, CCRF-CEM, 72 h; cell count, 50% of maximum possible response, 3 days
observation type: IC50
Form entry: enter the amount, then its unit.

GET /values?item= C[C@@H]1CC(=O)NN=C1c1ccc(NN=C(C#N)C#N)cc1 &system= CCRFCEM returns IC50: 35.5 µM

* * *

# Test system: CEM-C1
# assay info: cells
# Parameters: species or system panel of human cancer cell lines; Eurofins OncoPanel proliferation; nuclei count by high-content fluorescence imaging, 10-point dose response
# condition notes: CEM/C1, 72 h; cell count, curve inflection point, 3 days
observation type: pEC50
pEC50 is defined as minus the log10 of a concentration measured in mol/L.

So the reported pEC50 for C[C@@H]1CC(=O)NN=C1c1ccc(NN=C(C#N)C#N)cc1 [levosimendan] , on CEM-C1, turned out to be 4.65

* * *

# Tested on: SJSA1
# assay info: cells
# Set-up: species or system panel of human cancer cell lines; Eurofins OncoPanel proliferation; nuclei count by high-content fluorescence imaging, 10-point dose response
# condition notes: Homo sapiens, SJSA-1, 72 h; cell count, 50% of maximum possible response, 3 days
observation type: IC50 (µM)
Just the number in µM, nothing appended.

// IC50 lookup, molecule = C[C@@H]1CC(=O)NN=C1c1ccc(NN=C(C#N)C#N)cc1 [levosimendan] , result: 41.9

* * *

# Tested on: SW579
# assay info: cells
# Set-up: species or system panel of human cancer cell lines; Eurofins OncoPanel proliferation; nuclei count by high-content fluorescence imaging, 10-point dose response
# condition notes: SW579, 72 h; cell count, 50% of maximum possible response, 3 days
observation type: pIC50
Quick note: pIC50 means taking -log10 of the concentration in moles per liter.

Value of pIC50 reported for the compound C[C@@H]1CC(=O)NN=C1c1ccc(NN=C(C#N)C#N)cc1 is 4.05

* * *

# System: SW1353
# assay info: cells
# Design: species or system panel of human cancer cell lines; Eurofins OncoPanel proliferation; nuclei count by high-content fluorescence imaging, 10-point dose response
# condition notes: Homo sapiens, SW1353, 72 h; cell count, curve inflection point, 3 days
observation type: pEC50
Interpret pEC50 as the negative base-10 log of the concentration measured in mol/L.

Given the compound C[C@@H]1CC(=O)NN=C1c1ccc(NN=C(C#N)C#N)cc1 and test system SW1353, the measured pEC50 is 4.14

* * *

# Tested on: SJSA1
# assay info: cells
# Design: species or system panel of human cancer cell lines; Eurofins OncoPanel proliferation; nuclei count by high-content fluorescence imaging, 10-point dose response
# condition notes: Homo sapiens, SJSA-1, 72 h; cell count, curve inflection point, 3 days
observation type: EC50 (µM)
I only need the number, in µM, no unit after it.

Kindly note: SJSA1, C[C@@H]1CC(=O)NN=C1c1ccc(NN=C(C#N)C#N)cc1 , EC50 value reported: 41.9

* * *

# Tested on: Daudi
# assay info: cells
# Parameters: species or system panel of human cancer cell lines; Eurofins OncoPanel proliferation; nuclei count by high-content fluorescence imaging, 10-point dose response
# condition notes: Homo sapiens, Daudi, 72 h; cell count, curve inflection point, 3 days
observation type: pEC50
Reminder that pEC50 means the negative base-10 logarithm of the concentration expressed in mol/L.

Please fill in: pEC50 reported for C[C@@H]1CC(=O)NN=C1c1ccc(NN=C(C#N)C#N)cc1 = 4.82

* * *

# System: SW48
# assay info: cells
# Design: species or system panel of human cancer cell lines; Eurofins OncoPanel proliferation; nuclei count by high-content fluorescence imaging, 10-point dose response
# condition notes: Homo sapiens, SW48, 72 h; cell count, curve inflection point, 3 days
observation type: pEC50
pEC50 (log units): -log10 of the concentration in mol/L.

Lab note: measured pEC50 of C[C@@H]1CC(=O)NN=C1c1ccc(NN=C(C#N)C#N)cc1 was 4.87

* * *

# Test system: UM-UC-3
# assay info: cells
# Set-up: species or system panel of human cancer cell lines; Eurofins OncoPanel proliferation; nuclei count by high-content fluorescence imaging, 10-point dose response
# condition notes: Homo sapiens, UMUC3, 72 h; cell count, curve inflection point, 3 days
observation type: EC50

Entry C[C@@H]1CC(=O)NN=C1c1ccc(NN=C(C#N)C#N)cc1 [levosimendan] under UM-UC-3 had EC50 of 48.5 µM

* * *

# Tested on: NCIH441
# assay info: cells
# Set-up: species or system panel of human cancer cell lines; Eurofins OncoPanel proliferation; nuclei count by high-content fluorescence imaging, 10-point dose response
# condition notes: Homo sapiens, NCI-H441, 72 h; cell count, 50% of maximum possible response, 3 days
observation type: IC50

So, C[C@@H]1CC(=O)NN=C1c1ccc(NN=C(C#N)C#N)cc1 ? Its IC50 was > 100 µM
